Each recorded value in this set is attributed to patent US7657380.

Molecular target: T1, human CD30 (commercial, conjugated to digoxigenin) (human, UniProt P28908 19-379, limits assumed, conjugated to digoxigenin (DIG))
T1 sequence (looked up): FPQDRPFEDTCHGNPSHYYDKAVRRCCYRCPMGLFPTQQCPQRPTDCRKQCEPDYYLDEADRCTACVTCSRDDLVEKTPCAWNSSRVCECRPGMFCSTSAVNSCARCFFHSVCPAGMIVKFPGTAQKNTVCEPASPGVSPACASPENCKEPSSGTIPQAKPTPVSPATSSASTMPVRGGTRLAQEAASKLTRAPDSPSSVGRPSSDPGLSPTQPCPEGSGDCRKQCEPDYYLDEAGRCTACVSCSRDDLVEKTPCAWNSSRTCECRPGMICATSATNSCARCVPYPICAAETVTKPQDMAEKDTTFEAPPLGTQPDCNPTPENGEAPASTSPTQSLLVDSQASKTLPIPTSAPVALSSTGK
Experiment: AlphaScreen competition vs biotin-WT AC10
measured endpoint: Fold IC50 vs WT (fold)
Only the number, expressed in fold, is required.

Lookup: Request the reported Fold IC50 vs WT associated with AC10 H1/L0 full length antibody (antibody, V domains shown) VH: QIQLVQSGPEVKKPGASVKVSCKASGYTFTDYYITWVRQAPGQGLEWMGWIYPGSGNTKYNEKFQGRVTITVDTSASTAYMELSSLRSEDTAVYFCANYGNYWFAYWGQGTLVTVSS VL: DIVLTQSPASLAVSLGQRATISCKASQSVDFDGDSYMNWYQQKPGQPPKVLIYAASNLESGIPARFSGSGSGTDFTLNIHPVEEEDAATYYCQQSNEDPWTFGGGTKLEIK
Found: 0.32

Read the next record carefully.
Lookup: Request the reported Fold IC50 vs WT associated with AC10 H3/L3 full length antibody (antibody, V domains shown) VH: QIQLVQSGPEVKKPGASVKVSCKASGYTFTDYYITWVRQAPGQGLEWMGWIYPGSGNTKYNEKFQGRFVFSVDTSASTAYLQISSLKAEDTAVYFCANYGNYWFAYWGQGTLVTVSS VL: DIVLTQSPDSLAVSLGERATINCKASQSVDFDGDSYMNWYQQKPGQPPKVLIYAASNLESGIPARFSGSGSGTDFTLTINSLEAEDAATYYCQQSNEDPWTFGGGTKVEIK
Found: 1.59
